All values here come from ChEMBL document CHEMBL5576054.

Please go through the items and note down their solubility.
Experiment: Solubility of compound in PBS at pH 7.4
Type: physicochemical
Answer with the figure and its unit, nothing else.

Some compounds with known solubility results, for comparison:
# compound, solubility
data = [
    ("COc1ccc(OC)c(-c2csc(N3CCN(C(=O)c4ccco4)CC3)n2)c1", "0.7 µM"),
    ("Nc1ccc(/N=N/c2cccc(F)c2F)c(N)n1", "8.5 µM"),
    ("Cc1cc(C)c2nc(-c3ccncc3)cc(C(=O)NCCCn3ccnc3)c2c1", "146 µM"),
    ("Cc1ccc(C(=O)N2CCN(c3ccccc3)CC2)cc1S(=O)(=O)N1CCOCC1", "14.1 µM"),
    ("Cc1cccn2c(=O)c3cc(C(=O)N[C@@H](C)c4ccccc4)c(N)[n+](CCOCCO)c3nc12", "51.7 µM"),
]

For each of the items listed, what is its solubility?
1. CC(=O)C(C)n1c(CN2CCN(c3cccc(Cl)c3)CC2)nc2c1c(=O)n(C)c(=O)n2C (configuration not stated)
2. CCCCc1ccc(-n2nnc(C(=O)N(C)C3CCS(=O)(=O)C3)c2C)cc1 (configuration not stated)

Reply:
1: 177 µM; 2: 10 µM
